- TEST TARGET: T1, mPD-1.His (mouse, UniProt Q02242 25-167, limits assumed)
- T1 construct: Soluble analyte, probably the extracellular domain; also called mouse PD-1 (SPR analyte)
- T1 sequence (looked up): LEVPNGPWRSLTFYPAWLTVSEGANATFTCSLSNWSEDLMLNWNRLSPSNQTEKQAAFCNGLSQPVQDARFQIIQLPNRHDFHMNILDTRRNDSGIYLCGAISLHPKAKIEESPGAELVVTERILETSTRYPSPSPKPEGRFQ
- ASSAY NAME: SPR (ProteOn XPR36), antibody captured on Protein A, PD-1.His as analyte, 1:1 fit

BINDER: 2G4 (antibody, human IgG4, V domains shown) VH: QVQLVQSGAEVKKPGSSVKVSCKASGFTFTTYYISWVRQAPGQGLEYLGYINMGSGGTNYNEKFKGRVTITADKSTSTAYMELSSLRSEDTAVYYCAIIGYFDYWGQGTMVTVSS VL: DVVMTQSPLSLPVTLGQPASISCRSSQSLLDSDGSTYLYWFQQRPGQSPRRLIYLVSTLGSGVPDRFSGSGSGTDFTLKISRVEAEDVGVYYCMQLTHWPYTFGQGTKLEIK
UNIT SYMBOL: s⁻¹
koff: 0.0013
